# Test system: Escherichia coli K-12 LA 290 R55
Endpoint label: MIC (µg/mL)
Numeric only. Scale: µg/mL

// solved cases for MIC follow
CNC[C@@H]1CC[C@@H](N)[C@@H](O[C@H]2C[C@@H](O[C@H]3O[C@H](CO)[C@@H](O)[C@H](N)[C@H]3O)[C@H](NC(=O)[C@@H](O)CCCN)C[C@@H]2N)O1; 3.13
CNC[C@@H]1CC[C@@H](N)[C@@H](O[C@H]2C[C@@H](O[C@H]3O[C@H](CO)[C@@H](O)[C@H](N)[C@H]3O)[C@H](NC(=O)[C@@H](O)CCN)C[C@@H]2N)O1; 1.56
NCC[C@H](O)C(=O)N[C@@H]1C[C@H](N)[C@@H](O[C@H]2O[C@H](CN)CC[C@H]2N)[C@H](O)[C@H]1O[C@H]1O[C@H](CO)[C@@H](O)[C@H](N)[C@H]1O [Habekacin, reference compound]; 6.25

Then there is this compound:
Give the value of MIC reported for the following: C[C@H]1O[C@H](O[C@@H]2C[C@H](O[C@H]3O[C@H](CN)CC[C@H]3N)[C@@H](N)C[C@H]2NC(=O)[C@@H](O)CCN)[C@H](O)[C@@H](N)[C@@H]1O
1.56
